# system_name: Cytochrome P450 1A2 (Homo sapiens)
# method_description: p450-cyp1a2 (AID 410); further: potency means the concentration at half of the fitted maximal effect
# conditions_used: recombinant CYP1A2, luciferin-ME demethylation, luminescence; series mostly up to 57 µM
Records with an inconclusive call do not appear. Active and inactive are the calls of the source. The call rests on the fitted dose curve.
metric: Potency

Answered cases to consult:
CC(=O)[C@@]1(O)Cc2c(O)c3c(c(O)c2[C@H](O[C@H]2C[C@H](N)[C@H](O)[C@H](C)O2)C1)C(=O)c1ccccc1C3=O
20000 nM (active)
CN(C)c1ccc(-c2cncnc2NCCN2CCOCC2)cc1
15800 nM (active)

Look up Potency of COc1ccc(Oc2ncc3nc(-c4cccc(C#N)c4)c(=O)n(CCC#N)c3n2)cc1 and report it.
25100 nM (active)

Retrieve Potency measured for CC(C)=CCc1c(O)cc(O)c2c1O[C@H](c1ccccc1)CC2=O and print it.
316 nM (active)

Indicate its recorded Potency; the compound in question is O=C(c1ccco1)N1CCC2(CC1)CN(c1cccc(-c3ccccc3)c1)C2
7940 nM (active)

Check the records and state Potency for COc1cccc(-c2ccc3ncnc(NCc4cnc(C)cn4)c3c2)c1
2510 nM (active)

Query Potency for Cn1c(=O)c(-c2ccccc2)nc2cnc(N3CCOCC3)nc21
2000 nM (active)

###

# Tested on: DIV14
# method_description: qHTS profiling for inhibitors of Plasmodium falciparum proliferation (AID 504749); further: nearly all actives have a fitted effect of over 60% in size
# conditions_used: P. falciparum in erythrocytes, SYBR Green DNA, 72 h; series mostly up to 28.7 µM
Results filed as inconclusive are left out. Active and inactive are the calls of the source. Calls follow the shape of the dose curve; as a rule, active = well fitted inhibition curve with a large enough effect; inconclusive = small, poorly fitted or top-dose-only effect; inactive = flat fitted curve, though single readings scatter.
Select the correct class. Options are Y for active, N for inactive and nothing else.

GET /call?item= CCN1/C(=C/C=C/C=C/c2sc3ccccc3[n+]2CC)Sc2ccccc21 returns the recorded outcome of this test.
Y

What call does the record list for C/C=C\c1ccc(OC)cc1 ?
N

###

# method_description: Cell Viability - LYMP1-003 - Assay at 40 hr (AID 964); further: nearly all actives have a fitted effect of over 60% in size
# conditions_used: LYMP1-003 lymphoblastoid viability; series mostly up to 92.2 µM
Results filed as inconclusive are left out. The source made the active and inactive calls. The call rests on the fitted dose curve; in most records, active means well fitted cell-killing curve with a large enough effect; inconclusive means small, poorly fitted or top-dose-only effect; inactive means flat fitted curve, though single readings scatter.
Use one of these outcomes when replying: yes (1) (active), no (0) (inactive)

Example entries and their recorded answers appear below.
CCCCCCCCCCCCCC(=O)O
no (0)
O=C(O)CC(C(=O)O)C(CC(=O)O)C(=O)O (stereo unspecified)
no (0)
Cc1ccc([N+](=O)[O-])c(C)c1
no (0)
Cc1ccc([N+](=O)[O-])cc1N
no (0)
COC(=O)c1ccc(C=O)cc1
no (0)
CC(=O)OC/C=C(\C)CCC=C(C)C
no (0)
c1ccc2scnc2c1
no (0)
c1ccc2c(c1)[nH]c1ccccc12
no (0)

What did this assay record as the result for O=S(=O)(O)c1ccccc1 ?
no (0)

Fill in: this test's call for NC1=NC(S)C2N=CN=C2N1 (stereo unspecified) is ___
yes (1)

I would be grateful if you could indicate the recorded call for Cc1ccccc1C .
no (0)

Entry C/C=C\c1ccc(OC)cc1 : call = ?
no (0)

GET /call?item= CCCCC(CC)CN (stereo unspecified) returns the recorded outcome of this test.
no (0)

What was the test verdict on Cc1c(N=C=O)cccc1N=C=O ?
no (0)

###

# system_name: Rap guanine nucleotide exchange factor 3 (Homo sapiens) (UniProt O95398)
# method_description: Counterscreen qHTS for agonist of cAMP-regulated guanine nucleotide exchange factor 3 (EPAC1) (AID 1645889); further: % of control where 0% means no effect; nearly all actives have a fitted effect of over 40% in size
# conditions_used: EPAC1 Rap1B-BODIPY-GDP exchange, fluorescence; series mostly up to 154 µM
Inconclusive results are not listed. Activity calls are given as the source filed them. Calls come from the whole dose curve; as a rule, active = well fitted activation curve with a large enough effect; inconclusive = small, poorly fitted or top-dose-only effect, or another doubt; inactive = no such curve, though single readings can be large or run the other way.
metric: activation

COc1ccc(N=C2NC(=O)S/C2=C\c2ccc(N(C)C)cc2)cc1
inactive
Cc1ccc(-n2nnnc2SCC(=O)NCC2(N3CCOCC3)CCCCC2)cc1
inactive
CCOc1cccc(C(=O)Nc2ccc3oc(Cc4ccc(Cl)cc4)nc3c2)c1
18.7% [at 30.8 µM] (inactive)
CCN1CCN(c2ccc(S(=O)(=O)N3CCCCC3)cc2NC(=O)c2cccc(OC(F)F)c2)CC1
inactive
CCc1cccc(C)c1Nc1c(-c2ccsc2)nc2ncccn12
inactive

Report activation, nothing else, for this compound: C[C@H]1CN([C@@H](C)CO)C(=O)c2cccc(NC(=O)C3CC3)c2O[C@H]1CN(C)S(=O)(=O)c1ccccc1
inactive

Answer with the recorded activation of CCOC(=O)C1Oc2ccccc2C(c2ccc(F)cc2)=C1C(=O)OC (stereo unspecified) only.
13.2% [at 30.8 µM] (inactive)

Given NC(N)=N/N=C/c1ccc(OCc2ccc(Cl)cc2Cl)cc1 , respond with its activation.
27.4% [at 30.8 µM] (inactive)

Quick one: give measured activation for O=C(CSc1nc(-c2cccs2)nc2cc(=O)[nH]n12)Nc1cccc(C(F)(F)F)c1
inactive

# return recorded activation for input NS(=O)(=O)c1ccc(Nc2nc(-c3cccc([N+](=O)[O-])c3)cs2)cc1
15.6% [at 30.8 µM] (inactive)

State, in one line, measured activation of O=C(NCCc1ccccc1)c1cccc(NC(=O)c2ccccc2)c1
inactive

Annotate the compound COc1cc(Br)cc(C(=O)N2CCc3ccccc32)c1OC with its measured activation.
inactive

Return activation (reported value) for this compound: COc1ccc(C2CC(=O)c3ccccc3O2)cc1 (stereo unspecified)
inactive

Tell me activation reported for CN(Cc1ccc(Cl)cc1Cl)C(=O)CN1C(=O)NC2(CCCC2)C1=O
inactive

Supply recorded activation for Cc1cc(C(=O)CCC(=O)N2CCN(S(=O)(=O)c3ccccc3)CC2)c(C)s1 here.
inactive

Could you please provide reported activation for CCc1ccc(N=C2NC(=O)/C(=C/c3cc(Br)c(OCC(=O)O)c(OC)c3)S2)cc1 ? Thanks!
15.5% [at 30.8 µM] (inactive)

Give activation for the following compound: CCOP(=O)(OCC)C(Cc1ccccc1)N=C(c1ccccc1)c1ccccc1 (stereo unspecified)
12.6% [at 30.8 µM] (inactive)

Identify measured activation associated with C/C(=N\NC(=O)CC#N)c1cc2ccc(O)cc2oc1=O
-21% [at 30.8 µM] (inactive)

Report measured activation; entry is CC(=O)Nc1ccc(S(=O)(=O)/N=C2/NC(=O)/C(=C\c3ccco3)S2)cc1
inactive

Determine from records and report activation for CN(C)c1ccccc1-c1cc(NC=O)c2ncc(-c3cccc(C(F)(F)F)c3)n2c1
inactive

Write down activation measured for item O=c1c2cc([N+](=O)[O-])cc([N+](=O)[O-])c2[nH]n1-c1ccccc1
10.6% [at 30.8 µM] (inactive)

// provenance: PubChem BioAssay (NCATS)
